Data origin, for the record: patent US20240335569A1

- STUDY_SYSTEM: Human recombinant FAP (Homo sapiens (Human), UniProt Q12884)
- Sequence (Q12884 whole entry): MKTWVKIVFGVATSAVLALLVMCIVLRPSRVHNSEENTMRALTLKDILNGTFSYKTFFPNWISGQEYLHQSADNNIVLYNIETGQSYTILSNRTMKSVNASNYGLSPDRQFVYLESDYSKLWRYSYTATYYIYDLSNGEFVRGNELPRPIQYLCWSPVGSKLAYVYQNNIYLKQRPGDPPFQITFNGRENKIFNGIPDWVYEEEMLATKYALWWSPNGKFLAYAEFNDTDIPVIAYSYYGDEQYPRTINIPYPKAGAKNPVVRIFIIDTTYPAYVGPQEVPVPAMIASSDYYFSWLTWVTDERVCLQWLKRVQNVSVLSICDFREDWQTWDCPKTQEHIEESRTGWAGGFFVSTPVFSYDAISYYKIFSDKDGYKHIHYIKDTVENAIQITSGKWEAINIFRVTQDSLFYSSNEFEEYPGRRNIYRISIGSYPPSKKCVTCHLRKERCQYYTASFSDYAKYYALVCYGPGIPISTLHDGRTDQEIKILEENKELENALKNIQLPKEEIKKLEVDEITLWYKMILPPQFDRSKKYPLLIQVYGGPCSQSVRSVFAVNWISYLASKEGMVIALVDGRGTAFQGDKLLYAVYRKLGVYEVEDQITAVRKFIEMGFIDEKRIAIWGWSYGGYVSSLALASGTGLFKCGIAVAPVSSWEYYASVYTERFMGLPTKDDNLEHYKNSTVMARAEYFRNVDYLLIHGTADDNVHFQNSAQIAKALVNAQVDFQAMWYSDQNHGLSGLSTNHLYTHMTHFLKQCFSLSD
- PROCEDURE_TEXT: Surface plasmon resonance assay (Biacore T200, SCK)
- Type: binding
- TEST_PARAMETERS: SPR dissociation half-life
READOUT_LABEL: HL [min] (Biacore) (min)

STRUCTURE: N#C[C@@H]1CC(F)(F)CN1C(=O)CNC(=O)c1ccnc2ccc(OCCCN3CCN(C(=O)CN4CCN5CCN6CCN(CC4)CC(=O)[O][Lu]([O]C(=O)C6)[O]C(=O)C5)CC3)cc12
STUDY_SYSTEM: Human recombinant FAP (Homo sapiens (Human), UniProt Q12884)
HL [min] (Biacore) (min): 35.5

P: O=C(O)CN1CCN(CC(=O)O)CCN(CC(=O)N2CCN(CCCOc3ccc4nccc(C(=O)NCC(=O)N5CC(F)(F)C[C@H]5C(=O)c5nc6ccccc6o5)c4c3)CC2)CCN(CC(=O)O)CC1
Q: CS(=O)(=O)c1ccc(-c2ccc3c(C(=O)NCC(=O)N4CC(F)(F)C[C@H]4C#N)ccnc3c2)cc1
Please state the entry with greater HL [min] (Biacore) among P and Q . Give the chosen item's label as your response.
P
(P: 57 min, Q: 37 min)
